# Read-out: growth arrest and DNA damage 45 (GADD45A), GADD45A (gene 1647)
# PROTOCOL SUMMARY: LTEA_HepaRG_GADD45A: Life Technologies and Expression Analysis (LTEA) Assay for growth arrest and DNA damage 45 (GADD45A) using HepaRG (AID 2283458)
# STUDY CONDITIONS: mRNA level, 48 h; actives raise or lower the signal
Calls of active or inactive are those of the source. The calls were made as follows: active = hit-call score of the fitted dose curve at least 0.9, where 1 is the maximum; inactive = score below 0.9.
API: response.call in active, inactive

Hello, I am checking results. What call was entered for `CS(=O)(=O)c1ccc([C@@H](CC2CCCC2)C(=O)Nc2cnccn2)cc1Cl` ?
active

Hello, I am checking results. What call was entered for CCCCC(CC)C(=O)O (stereo not given) ?
inactive

Hello, I am checking results. What call was entered for `OCC(CO)(CBr)CBr` ?
inactive

Hello, I am checking results. What call was entered for `CCCCC=O` ?
inactive

Hello, I am checking results. What call was entered for `N=C(N)c1ccc(OCCCCCOc2ccc(C(=N)N)cc2)cc1` ?
active

Hello, I am checking results. What call was entered for `O=C(CCCN1CCC(O)(c2ccc(Cl)cc2)CC1)c1ccc(F)cc1` ?
active

Hello, I am checking results. What call was entered for `Cc1[nH]nc2c1N=C(c1ccccc1Cl)c1cc([N+](=O)[O-])ccc1N2` ?
active

Hello, I am checking results. What call was entered for `CCCCCCCCCCCCOS(=O)(=O)O` ?
inactive

Hello, I am checking results. What call was entered for `O=C1NS(=O)(=O)c2ccccc21` ?
inactive

Hello, I am checking results. What call was entered for `CCCCCCCCCCCCCCC` ?
inactive
